Tested on: siHa
Test: MTT test of overall cell growth, SiHa cervix cancer cells, normoxia or hypoxia
Format: cell-based, human
Measurement Conditions: Homo sapiens, hypoxia 1% O2, 72 h, read-out: IC50 (μM) Hypoxia 1% O2
Please use condition met for IC50 under 100 µM and condition not met for everything else, ties included.

Does the reported IC50 of C[C@H]1CC[C@H]2[C@H](C1)c1c(c3ccccc3c3nc4cc(C(=O)N5CCOCC5)ccc4nc13)OC2(C)C (racemic) [Compound 12] stay below 100 µM? condition met

Does the reported IC50 of COc1ccc(CNC(=O)c2ccc3nc4c5c(c6ccccc6c4nc3c2)OC(C)(C)[C@H]2CC[C@H](C)C[C@H]52)c(OC)c1 [Compound 16] stay below 100 µM? condition not met

Does the reported IC50 of C[C@H]1CC[C@H]2[C@H](C1)c1c(c3ccccc3c3nc4ccc(C(=O)N5CCOCC5)cc4nc13)OC2(C)C (racemic) [Compound 12′] stay below 100 µM? condition met

Does the reported IC50 of COC(=O)c1ccc2nc3c4c(c5ccccc5c3nc2c1)OC(C)(C)[C@H]1CC[C@H](C)C[C@H]41 [Compound 11] stay below 100 µM? condition not met

Does the reported IC50 of COc1ccc(CNC(=O)c2ccc3nc4c(nc3c2)c2c(c3ccccc34)OC(C)(C)[C@H]3CC[C@H](C)C[C@H]23)c(OC)c1 [Compound 16′] stay below 100 µM? condition met

Does the reported IC50 of COC(=O)c1ccc2nc3c(nc2c1)c1c(c2ccccc23)OC(C)(C)[C@H]2CC[C@H](C)C[C@H]12 [Compound 11′] stay below 100 µM? condition not met
